These data points were gathered from patent US20090111736A1.

experiment: In vitro mucosal-to-serosal vancomycin transport, modified Ussing chambers, jejunum; format: in vitro ADME, rat; conditions: male, rat, pH 7.4, 5 mg/ml; jejunum; HEPES buffer containing 5% w/w Polysorbate-80
Structures can show the parent of a compound that is named as a salt.
Property: Papp at 5 mg/ml (nm/s)
Answers are plain numbers, in nm/s.

Quick check: Papp at 5 mg/ml of CN[C@H](CC(C)C)C(=O)N[C@H]1C(=O)N[C@@H](CC(N)=O)C(=O)N[C@H]2C(=O)N[C@H]3C(=O)N[C@H](C(=O)N[C@H](C(=O)O)c4cc(O)cc(O)c4-c4cc3ccc4O)[C@H](O)c3ccc(c(Cl)c3)Oc3cc2cc(c3O[C@@H]2O[C@H](CO)[C@@H](O)[C@H](O)[C@H]2O[C@H]2C[C@](C)(N)[C@H](O)[C@H](C)O2)Oc2ccc(cc2Cl)[C@H]1O [Vancomycin hydrochloride] ?
8.8

* * *

experiment: In vitro mucosal-to-serosal vancomycin transport, modified Ussing chambers, jejunum; assay type: in vitro ADME, rat; settings: male, rat, pH 7.4, with quinidine 0.15 mM in the mucosal chamber, 5 mg/ml; jejunum; 0.15 mM Quinidine in mucosal chamber
Where a name gives a salt, the structure may show the parent alone.
Property: Papp at 2.5 hr, 5 mg/ml (×10⁻⁶ cm/s)
Give bare numbers, in ×10⁻⁶ cm/s.

Quick check: Papp at 2.5 hr, 5 mg/ml of CN[C@H](CC(C)C)C(=O)N[C@H]1C(=O)N[C@@H](CC(N)=O)C(=O)N[C@H]2C(=O)N[C@H]3C(=O)N[C@H](C(=O)N[C@H](C(=O)O)c4cc(O)cc(O)c4-c4cc3ccc4O)[C@H](O)c3ccc(c(Cl)c3)Oc3cc2cc(c3O[C@@H]2O[C@H](CO)[C@@H](O)[C@H](O)[C@H]2O[C@H]2C[C@](C)(N)[C@H](O)[C@H](C)O2)Oc2ccc(cc2Cl)[C@H]1O [Vancomycin hydrochloride] ?
0.79

* * *

test: In vitro mucosal-to-serosal vancomycin transport, modified Ussing chambers, jejunum; type: in vitro ADME, rat; conditions: male, rat, pH 7.4, 50 mg/mL; HEPES buffer alone; jejunum
Structures can show the parent of a compound that is named as a salt.
Property: Papp at 2.5 hr, 50 mg/mL (×10⁻⁶ cm/s)
Answers are plain numbers, in ×10⁻⁶ cm/s.

Quick check: Papp at 2.5 hr, 50 mg/mL of CN[C@H](CC(C)C)C(=O)N[C@H]1C(=O)N[C@@H](CC(N)=O)C(=O)N[C@H]2C(=O)N[C@H]3C(=O)N[C@H](C(=O)N[C@H](C(=O)O)c4cc(O)cc(O)c4-c4cc3ccc4O)[C@H](O)c3ccc(c(Cl)c3)Oc3cc2cc(c3O[C@@H]2O[C@H](CO)[C@@H](O)[C@H](O)[C@H]2O[C@H]2C[C@](C)(N)[C@H](O)[C@H](C)O2)Oc2ccc(cc2Cl)[C@H]1O [Vancomycin hydrochloride] ?
0.39

* * *

assay: In vitro mucosal-to-serosal vancomycin transport, modified Ussing chambers, ileum; format: in vitro ADME, rat; details: male, rat, pH 7.4, 5 mg/ml, HEPES buffer alone
Structures can show the parent of a compound that is named as a salt.
Property: Papp at 2.5 hr, 5 mg/ml (×10⁻⁶ cm/s)
Answers are plain numbers, in ×10⁻⁶ cm/s.

Quick check: Papp at 2.5 hr, 5 mg/ml of CN[C@H](CC(C)C)C(=O)N[C@H]1C(=O)N[C@@H](CC(N)=O)C(=O)N[C@H]2C(=O)N[C@H]3C(=O)N[C@H](C(=O)N[C@H](C(=O)O)c4cc(O)cc(O)c4-c4cc3ccc4O)[C@H](O)c3ccc(c(Cl)c3)Oc3cc2cc(c3O[C@@H]2O[C@H](CO)[C@@H](O)[C@H](O)[C@H]2O[C@H]2C[C@](C)(N)[C@H](O)[C@H](C)O2)Oc2ccc(cc2Cl)[C@H]1O [Vancomycin hydrochloride] ?
0.38

* * *

experiment: In vitro mucosal-to-serosal vancomycin transport, modified Ussing chambers, jejunum; format: in vitro ADME, rat; details: male, rat, pH 7.4, 5 mg/ml; jejunum; HEPES buffer containing 10% w/w Labrasol ®
Counter-ions that a name gives are not always drawn.
Property: Papp at 5 mg/ml (×10⁻⁶ cm/s)
Answers are plain numbers, in ×10⁻⁶ cm/s.

Quick check: Papp at 5 mg/ml of CN[C@H](CC(C)C)C(=O)N[C@H]1C(=O)N[C@@H](CC(N)=O)C(=O)N[C@H]2C(=O)N[C@H]3C(=O)N[C@H](C(=O)N[C@H](C(=O)O)c4cc(O)cc(O)c4-c4cc3ccc4O)[C@H](O)c3ccc(c(Cl)c3)Oc3cc2cc(c3O[C@@H]2O[C@H](CO)[C@@H](O)[C@H](O)[C@H]2O[C@H]2C[C@](C)(N)[C@H](O)[C@H](C)O2)Oc2ccc(cc2Cl)[C@H]1O [Vancomycin hydrochloride] ?
0.36

* * *

experiment: In vitro mucosal-to-serosal vancomycin transport, modified Ussing chambers, jejunum; assay type: in vitro ADME, rat; settings: male, rat, pH 7.4, 5 mg/ml; HEPES buffer alone; jejunum
Structures can show the parent of a compound that is named as a salt.
Property: Papp at 2.5 hr, 5 mg/ml (×10⁻⁶ cm/s)
Answers are plain numbers, in ×10⁻⁶ cm/s.

Quick check: Papp at 2.5 hr, 5 mg/ml of CN[C@H](CC(C)C)C(=O)N[C@H]1C(=O)N[C@@H](CC(N)=O)C(=O)N[C@H]2C(=O)N[C@H]3C(=O)N[C@H](C(=O)N[C@H](C(=O)O)c4cc(O)cc(O)c4-c4cc3ccc4O)[C@H](O)c3ccc(c(Cl)c3)Oc3cc2cc(c3O[C@@H]2O[C@H](CO)[C@@H](O)[C@H](O)[C@H]2O[C@H]2C[C@](C)(N)[C@H](O)[C@H](C)O2)Oc2ccc(cc2Cl)[C@H]1O [Vancomycin hydrochloride] ?
0.62

* * *

assay: In vitro mucosal-to-serosal vancomycin transport, modified Ussing chambers, jejunum; type: in vitro ADME, rat; details: male, rat, pH 7.4, 5 mg/ml; jejunum; HEPES buffer containing 5% w/w Vitamin E TPGS + 5% w/w Labrasol ®
Where a name gives a salt, the structure may show the parent alone.
Property: Papp at 5 mg/ml (×10⁻⁶ cm/s)
Answers are plain numbers, in ×10⁻⁶ cm/s.

Quick check: Papp at 5 mg/ml of CN[C@H](CC(C)C)C(=O)N[C@H]1C(=O)N[C@@H](CC(N)=O)C(=O)N[C@H]2C(=O)N[C@H]3C(=O)N[C@H](C(=O)N[C@H](C(=O)O)c4cc(O)cc(O)c4-c4cc3ccc4O)[C@H](O)c3ccc(c(Cl)c3)Oc3cc2cc(c3O[C@@H]2O[C@H](CO)[C@@H](O)[C@H](O)[C@H]2O[C@H]2C[C@](C)(N)[C@H](O)[C@H](C)O2)Oc2ccc(cc2Cl)[C@H]1O [Vancomycin hydrochloride] ?
0.56

* * *

assay: In vitro mucosal-to-serosal vancomycin transport, modified Ussing chambers, jejunum; assay type: in vitro ADME, rat; conditions: male, rat, pH 7.4, 5 mg/ml; jejunum; HEPES buffer containing 5% w/w Gelucire ® 44/14
Counter-ions that a name gives are not always drawn.
Property: Papp at 5 mg/ml

Quick check: Papp at 5 mg/ml of CN[C@H](CC(C)C)C(=O)N[C@H]1C(=O)N[C@@H](CC(N)=O)C(=O)N[C@H]2C(=O)N[C@H]3C(=O)N[C@H](C(=O)N[C@H](C(=O)O)c4cc(O)cc(O)c4-c4cc3ccc4O)[C@H](O)c3ccc(c(Cl)c3)Oc3cc2cc(c3O[C@@H]2O[C@H](CO)[C@@H](O)[C@H](O)[C@H]2O[C@H]2C[C@](C)(N)[C@H](O)[C@H](C)O2)Oc2ccc(cc2Cl)[C@H]1O [Vancomycin hydrochloride] ?
0.78 ×10⁻⁶ cm/s

* * *

Assay: In vitro mucosal-to-serosal vancomycin transport, modified Ussing chambers, jejunum
Type: in vitro ADME, rat
Conditions: male, rat, pH 7.4, jejunum; in the presence of 10% w/w Labrasol®
Excerpt: We investigated regional variation in permeation of vancomycin (VCM) across various segments of rat intestine and colon in vitro by mounting isolated segments of rat intestine and colon between horizontal modified Ussing chambers. […] Changes in transepithelial short-circuit current (in micro-Amps) and membrane resistance (in Ohms) as a function of time were monitored continuously during in vitro studies to serve as indicators of tissue viability and drug permeability, respectively. […]
Where a name gives a salt, the structure may show the parent alone.
Property: Papp at 2.5 hr, 5 mg/mL (×10⁻⁶ cm/s)
One number for each entry, in ×10⁻⁶ cm/s.

Quick check: Papp at 2.5 hr, 5 mg/mL of CN[C@H](CC(C)C)C(=O)N[C@H]1C(=O)N[C@@H](CC(N)=O)C(=O)N[C@H]2C(=O)N[C@H]3C(=O)N[C@H](C(=O)N[C@H](C(=O)O)c4cc(O)cc(O)c4-c4cc3ccc4O)[C@H](O)c3ccc(c(Cl)c3)Oc3cc2cc(c3O[C@@H]2O[C@H](CO)[C@@H](O)[C@H](O)[C@H]2O[C@H]2C[C@](C)(N)[C@H](O)[C@H](C)O2)Oc2ccc(cc2Cl)[C@H]1O [Vancomycin hydrochloride] ?
0.36
